test system: MS2 coat protein; assay: apparent KD of MS2 coat protein, switch OFF state (with FMN for OFF switches, without FMN for ON switches); designed switch direction (-1 OFF switch, 1 ON switch): 1; higher = weaker reporter binding; details: FMN input: 0 or 200 uM; Eterna round: R93 (includes R88 designs)
// values below are reported apparent KD of MS2 coat protein
Quick note: number first, unit second.

See these solved cases before continuing.
>>> observed_result("AGAAAUAAAUGAGAGGAUAUCCAAAAGAAAACAUGAGGAUCACCCAUGUAAAAGAAAAUAAAAUGGGAGAAGGCUCAAAAUAAAG [80%, More Helter Skelter 2]")
"0.0585 µM"
>>> observed_result("AGCAUGCGAUAUAAGGAUAUGUUGUUUGCAACAUGAGGAUCACCCAUGUUUGAGGCUGAAAAGCAGCAGAAGGUAUAUACAAGCA [SS2-1.0]")
"0.013 µM"

I looked up CAUAGACAUGAGGAUCACCCAUGUAGAAUUAUGGGAGGAUAUACAAAGACGAGAGUCAGAGUAGAAGGCCUAGGAA [salish99-ss1-160] and its apparent KD of MS2 coat protein for MS2 coat protein was 0.0386 µM

Considering AAGAAAAAAAGGCAGGAUAUCCAAAAAAAAACAUGAGGAUCACCCAUGUAAAAAUAAAAAAAAUGGGAGAAGGGCCAAAAAAGAA [Mat - Same State 2 - Mod - 154] , its apparent KD of MS2 coat protein with MS2 coat protein was recorded as 0.0221 µM
